Catalogue of compounds with associated z-score
- Protocol Text: MM1S myeloma cell viability, profiling panel, resazurin fluorescence, basal, 24 h, PK04 Diversity Set (AID 1174);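 further: MM1S multiple myeloma cell line; test concentration not given here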
- Test Context: higher = more signal, called active from +8 up or from −8 down
Quantity: z-score

1) C=C(COC)C(=O)CC[C@H](OC(C)=O)c1ccc(CO)o1 :: 0.324
2) COC(=O)C(CC#Cc1ccc2c(c1)[C@]1(C(=O)N2)[C@H](c2ccccc2OCCO)N2[C@H](c3ccccc3)[C@H](c3ccccc3)OC(=O)[C@H]2[C@@H]1C(=O)N1CCN(c2ncccn2)CC1)C(=O)OC :: -0.935
3) COc1ccc(C(=O)Nc2ccc(CN3C(=O)[C@@]4(O[C@@H](CC(=O)N(CCO)Cc5ccccc5)[C@H]([Si](C)(C)c5ccc(OC)cc5)[C@H]4C)c4ccccc43)cc2)cc1 :: -0.952
4) C[C@]1(C(=O)O)c2ccccc2C(=O)N(Cc2cc(C(F)(F)F)cc(C(F)(F)F)c2)[C@H]1c1ccc(CO)cc1 :: 0.385

----------
- Protocol Text: small-molecule binders of probe aNOTCH3, primary screen, biochemical, small-molecule microarray, 635/667 nm fluorescence (AID 1120);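 further: probe is a biotin-tagged antibody raised against NOTCH3 rather than NOTCH3 protein; score merges spot fluorescence near 667 nm with spot signal to noise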
- Test Context: higher = more signal
Rule: composite z-score of -0.07 or more gives Met; anything lower gives Not met.

1) COCCCNC(=O)[C@]1(Cc2ccccc2CN=[N+]=[N-])N=C(c2ccc(OCCCO)cc2)O[C@@H]1c1ccccc1N=[N+]=[N-] :: Met
2) COCCCNC(=O)[C@@]1(Cc2ccccc2I)c2ccccc2C(=O)N(C2CCCCC2)[C@H]1c1ccc(CO)cc1 :: Met
3) COc1ccc(C(=O)Nc2cccc(CN3C(=O)[C@]4(O[C@H](CC(=O)N(CCO)Cc5ccccc5)[C@@H]([Si](C)(C)c5ccc(OC)cc5)[C@@H]4C)c4ccccc43)c2)cc1 :: Met
4) CCCCN1CC=CC23O[C@@H]4/C=C\CCC(C)OC(=O)C4[C@H]2C(=O)N(CCO)[C@@H]3C1=O (some centres undefined) :: Not met
5) CC(C)c1ccc(NN2C(C(O)C(C)c3ccccc3)C=CC3C(=O)N(c4ccccc4)C(=O)C32)cc1 (centres undefined) :: Met
6) COC(=O)C(CC#Cc1ccc2c(c1)[C@]1(C(=O)N2)[C@H](C(=O)N2CCN(c3ncccn3)CC2)[C@H]2C(=O)O[C@H](c3ccccc3)[C@H](c3ccccc3)N2[C@@H]1c1ccc(O)cc1)C(=O)OC :: Met
7) COc1ccc(NN2C(C(O)c3ccccc3)C=CC3C(=O)N(C4CCCCC4)C(=O)C32)cc1 (centres undefined) :: Met
8) CC(C)[Si]1(C(C)C)OCc2cc(-c3ccc(-c4ccc(Cl)c(Cl)c4)o3)nc(-c3ccc(Oc4ccccc4)cc3)c21 :: Not met
9) Cc1ccc(S[C@]2(C(=O)NCc3ccccc3)CC(=O)N(Cc3ccccc3C(F)(F)F)[C@@H]2c2ccc(CO)cc2I)cc1 :: Not met
10) C=CCC(OC(C)=O)[C@@H]1[C@@H](N(Cc2ccc(-c3ccccc3)cc2)C(=O)Cc2ccc(OC)cc2)c2cc(OCCCO)ccc2N1C(=O)Cc1ccc(OC)cc1 (some centres undefined) :: Met
11) COc1ccc(C(=O)Nc2ccc(CN3C(=O)[C@@]4(O[C@@H](CC(=O)N(CCO)Cc5ccccc5)[C@H]([Si](C)(C)c5ccc(OC)cc5)[C@H]4C)c4ccccc43)cc2)cc1 :: Not met
12) OCCCc1cc[n+](Cc2cc3c(cc2Br)OCO3)cc1 :: Met
13) O=C1OCC=C[C@H]2OC34C=CCN(Cn5nnc6ccccc65)C(=O)[C@H]3N(CCO)C(=O)[C@@H]4[C@@H]12 (some centres undefined) :: Not met
14) COC(=O)C1=CC(c2ccc(CO)cc2)=CC(C2CC2)N(Cc2cc3c(cc2Br)OCO3)C=C1C(=O)OC (centres undefined) :: Met
15) C[N+](C)(C)CCCC[C@@H]1NC(=O)[C@H]2C[C@@H](C(=O)O)[C@@H](c3ccc(O)cc3)N2C1=O :: Not met
16) O=C1O[C@H](c2ccccc2)[C@H](c2ccccc2)N2[C@H]1[C@@H](C(=O)Nc1nc3ccccc3s1)[C@]1(C(=O)Nc3ccccc31)[C@H]2c1ccccc1OCCO :: Met
17) COC(=O)[C@@]1(Cc2ccc(F)cc2)[C@H]2c3cc(C(=O)N4CCCC4)n(Cc4ccc(C(F)(F)F)nc4)c3C[C@H]2CN1C(=O)c1ccccc1 :: Met
18) CC[C@@H](O[Si](C#C[Si](C(C)C)(C(C)C)C(C)C)(C(C)C)C(C)C)c1cn([C@H](CO)Cc2ccccc2)nn1 :: Met
19) CCCCC(=C=CC[C@H](O)c1ccccc1OCCO)CCO :: Not met
20) COc1ccc([Si](C)(C)[C@H]2[C@H](CC(=O)N3CCC[C@H]3CO)O[C@@]3(C(=O)N(Cc4cccc(N5CCCCC5=O)c4)c4ccccc43)[C@@H]2C)cc1 :: Not met
21) C=CCNC(=O)[C@H]1[C@@H]2C(=O)O[C@@H](c3ccccc3)[C@@H](c3ccccc3)N2[C@@H](c2ccc(O)cc2)[C@]12C(=O)Nc1ccccc12 :: Not met
22) O=C1NC(=O)C2C1C=CC(C(O)C1CCCCC1)N2Nc1ccccn1 (centres undefined) :: Met
23) [N-]=[N+]=NCc1ccccc1[C@H]1OC(c2ccc(OCCCO)cc2)=N[C@@]1(Cc1ccccc1N=[N+]=[N-])C(=O)O :: Met
24) C[C@@]1([C@@H](NS(=O)(=O)c2cccc3cccnc23)c2ccc(-c3ccccc3)cc2)C[C@H]1C1CCCCC1 :: Met
25) COc1cccc(C)c1NC(=O)O[C@H]1[C@H](OC(=O)Nc2ccccc2-c2ccccc2)[C@@H](OC(=O)Nc2ccccc2-c2ccccc2)[C@@H](OC)O[C@@H]1CO :: Met
26) CCCC1(C(=O)OC)C=C2C(=C(C(C)C)C(=O)C2C)CN1 (centres undefined) :: Met
27) CC(C)N1C(=O)[C@@]2(Cc3ccccc31)c1ccccc1C(=O)N(Cc1ccccc1C(F)(F)F)[C@H]2c1ccc(CO)cc1 :: Not met
28) CCCCN1CC=CC23O[C@@H]4C=CCCOC(=O)C4[C@H]2C(=O)N(CCO)[C@@H]3C1=O (some centres undefined) :: Not met
29) CC(C)(C)OC(=O)N1[C@@H](C=C(Br)Br)COC1(C)C :: Met

Measured values drawn from PubChem BioAssay for this set.
